# Target Desc: Focal adhesion kinase 1 (Homo sapiens, UniProt Q05397)
# Sequence (Q05397 whole entry): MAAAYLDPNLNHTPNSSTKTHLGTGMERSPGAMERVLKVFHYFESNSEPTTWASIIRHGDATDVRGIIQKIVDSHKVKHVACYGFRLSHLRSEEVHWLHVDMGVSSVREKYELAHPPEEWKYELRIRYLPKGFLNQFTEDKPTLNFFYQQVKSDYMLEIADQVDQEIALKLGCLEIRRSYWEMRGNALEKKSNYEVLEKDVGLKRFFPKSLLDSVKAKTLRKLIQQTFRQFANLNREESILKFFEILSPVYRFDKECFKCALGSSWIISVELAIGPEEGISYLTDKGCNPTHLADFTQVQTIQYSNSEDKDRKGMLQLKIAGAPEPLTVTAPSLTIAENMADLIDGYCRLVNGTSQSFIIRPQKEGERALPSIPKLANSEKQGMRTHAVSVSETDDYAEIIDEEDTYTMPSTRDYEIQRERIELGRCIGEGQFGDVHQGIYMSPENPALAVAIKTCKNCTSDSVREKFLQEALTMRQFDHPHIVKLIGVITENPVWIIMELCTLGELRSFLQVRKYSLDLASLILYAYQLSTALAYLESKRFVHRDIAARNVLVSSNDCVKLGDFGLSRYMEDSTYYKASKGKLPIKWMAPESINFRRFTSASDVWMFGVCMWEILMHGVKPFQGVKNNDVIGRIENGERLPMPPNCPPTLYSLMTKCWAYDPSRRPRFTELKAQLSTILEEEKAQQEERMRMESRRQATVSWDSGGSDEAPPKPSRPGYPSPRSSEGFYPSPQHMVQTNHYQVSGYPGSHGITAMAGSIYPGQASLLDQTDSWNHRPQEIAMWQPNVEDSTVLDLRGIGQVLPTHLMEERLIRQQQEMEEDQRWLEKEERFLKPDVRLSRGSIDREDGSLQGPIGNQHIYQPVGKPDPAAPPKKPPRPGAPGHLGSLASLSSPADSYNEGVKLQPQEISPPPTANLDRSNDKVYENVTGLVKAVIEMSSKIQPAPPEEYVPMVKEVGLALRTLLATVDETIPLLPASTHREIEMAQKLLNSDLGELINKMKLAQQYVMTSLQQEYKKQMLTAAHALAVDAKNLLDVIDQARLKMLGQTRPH
Response field label: string, one of satisfied (IC50 strictly below 2 nM) or not satisfied.

Ask: I'd appreciate it if you could check whether C=CC(=O)NC1CCC(CNC(=O)c2ccc(Nc3ncc(C(F)(F)F)c(NCc4nccnc4N(C)S(C)(=O)=O)n3)c(OC)c2)CC1 (stereo not given) has IC50 smaller than 2 nM.
Result: satisfied

Ask: Further, for C=CC(=O)N1CCCC(c2cccc(NCc3ccc(Nc4ncc(Cl)c(Nc5ccccc5C(=O)NC)n4)cc3)c2)C1 (stereo not given) ?
Result: not satisfied

Ask: Quick one: C=CC(=O)N1CCC(NC(=O)c2ccc(Nc3ncc(C(F)(F)F)c(NCc4nccnc4N(C)S(C)(=O)=O)n3)c(OC)c2)C1 (stereo not given)
Result: satisfied

Ask: Please do the same for C=CC(=O)N1CCCC(c2cccc(NCc3ccc(Nc4ncc(C(F)(F)F)c(Nc5ccccc5C(=O)NC)n4)c(OC)c3)c2)C1 (stereo not given) as well.
Result: not satisfied

Ask: Another molecule: C=CC(=O)N1CCCC(NC(=O)c2ccc(Nc3ncc(C(F)(F)F)c(NCc4nccnc4N(C)S(C)(=O)=O)n3)c(OC)c2)C1 (stereo not given)
Result: satisfied

Cited source: BindingDB's records for patent US20250127800
